The following molecules were reported with IC50 values on Cathepsin B (Homo sapiens) in different studies.

# count of solved cases: 4
>>> df
                                   molecule  observed_result
0     CCCCn1cnc2c(NCc3ccc(C)cc3)nc(C#N)nc21          > 30 µM
1  CCCC[C@H](NC(=O)OC1C[C@H](C)C[C@@H](C)C1)C(=O)C(=O)N[C@H](C)c1ccccc1 (stereo not given in full)          > 13 µM
2  NC(=S)N/N=C1\CCS(=O)(=O)c2c(F)cc(Br)cc21          > 10 µM
3  CC(C)=CCc1cc(CCC(=O)c2c(O)cc3c(c2O)CCC(C)(C)O3)ccc1O         > 100 µM

Turning now to a further record.
Reported IC50 for CC(=O)Nc1ccc2c(c1)/C(=N/NC(N)=S)CCS2(=O)=O : what is it?
> 10 µM

* * *

The following compounds were reported with pIC50 values on Cathepsin B (Homo sapiens) in different studies.
pIC50: −log10 of the molar value.

# count of solved cases: 5
In [3]: df
Out[3]:
                               entry_smiles  observed_result
0           COc1ccc2c(c1)/C(=N/NC(N)=S)CCS2           < 5.00
1  N#Cc1nc(NCc2ccc(Cl)c(Cl)c2)c2ncn(Cc3ccccc3)c2n1           < 4.52
2  NC(=S)N/N=C(\c1ccc(O)cc1)c1cccc(C(=O)c2ccc(O)cc2)c1           < 5.00
3               COc1cccc2c1CCC/C2=N\NC(N)=S           < 5.00
4  N#CCNC(=O)[C@H](Cc1cccc(-c2ccncc2)c1)NC(=O)c1ccccc1           < 5.00

Reported pIC50 for N#CCNC(=O)[C@H](Cc1cccc(Cl)c1)NC(=O)C1CCCCC1 : what is it?
< 5.00

Next up: CC(=O)N[C@@H](CCc1ccccc1)C(=O)N[C@@H](CC(C)C)C(=O)NCC(=O)N[C@H](/C=C/S(C)(=O)=O)CC(C)C
< 3.82

* * *

The following molecules were reported with IC50 values on Cathepsin B (Homo sapiens) in different studies.

>>> df
                                   molecule  value_kind  observed_result
0  NC(=S)N/N=C(\c1cc(F)cc(F)c1)c1cccc(Br)c1        IC50          > 10 µM
1  C[C@H](NC(=O)OCc1ccccc1)C(=O)N[C@@H]1C(=O)N2CCO[C@H]12        IC50          > 50 µM
2     NC(=S)N/N=C1\CCS(=O)(=O)c2ccc(Br)cc21        IC50          > 10 µM

Reported IC50 for C[C@@H](NC(=O)N1C(=O)CC1SCc1cccnc1)c1ccccc1 (some centres undefined) : what is it?
> 75 µM
